- experiment.summary: PK of compound of Formula (Ia) after single subcutaneous dose of solution formulations in Wistar Han rats
- Assay type: in vivo
- measurement.conditions: male, Wistar Han, rat, plasma, sc, 50 mg/kg, Wistar Han rats, SC 50 mg/kg, 500 mg/mL solution X (5.00% ethanol, 1.91% poloxamer 188), 2016 h, Mean n = 3

{"record.smiles": "CC(C)(C#Cc1ccc(-c2ccc(Cl)c3c(NS(C)(=O)=O)nn(CC(F)(F)F)c23)c([C@H](Cc2cc(F)cc(F)c2)NC(=O)Cn2nc(C(F)(F)F)c3c2C(F)(F)[C@@H]2C[C@H]32)n1)S(C)(=O)=O", "concentration at 2016 h / nM": 193}

###

- experiment.summary: PK of compound of Formula (Ia) after single subcutaneous dose of solution formulations in Wistar Han rats
- Type: in vivo
- measurement.conditions: male, Wistar Han, rat, plasma, sc, 50 mg/kg, 3696 h; individual rats; SC 50 mg/kg; solution V, 300 mg/mL
- Protocol: Formulations containing the compound of Formula (Ia), or a pharmaceutically acceptable salt thereof, were prepared as solutions and optionally administered subcutaneously or intramuscularly to rats, rabbits, and/or dogs. A solution of about 400 mg/mL of the compound of Formula (Ia) having 19.14 w/w % water, 40.66 w/w % PEG 300, 35.20 w/w % of a sodium salt of a compound of Formula (Ia), and 5.00% ethanol was prepared. […]
measured.parameter: concentration at 3696 h (nM)

{"compound": "CC(C)(C#Cc1ccc(-c2ccc(Cl)c3c(NS(C)(=O)=O)nn(CC(F)(F)F)c23)c([C@H](Cc2cc(F)cc(F)c2)NC(=O)Cn2nc(C(F)(F)F)c3c2C(F)(F)[C@@H]2C[C@H]32)n1)S(C)(=O)=O [compound of Formula (Ia)]", "measured.parameter": "concentration at 3696 h", "measurement.unit": "nM", "val": 72.2}

###

- experiment.summary: PK of compound of Formula (Ia) after single subcutaneous dose of solution formulations in Wistar Han rats
- Format: in vivo
- measurement.conditions: male, Wistar Han, rat, plasma, sc, 50 mg/kg, 1.00 h; individual rats; SC 50 mg/kg; solution U, 500 mg/mL

{"compound": "CC(C)(C#Cc1ccc(-c2ccc(Cl)c3c(NS(C)(=O)=O)nn(CC(F)(F)F)c23)c([C@H](Cc2cc(F)cc(F)c2)NC(=O)Cn2nc(C(F)(F)F)c3c2C(F)(F)[C@@H]2C[C@H]32)n1)S(C)(=O)=O [compound of Formula (Ia)]", "concentration at 1 h [nM]": 42.6}

###

- experiment.summary: PK of compound of Formula (Ia) after single subcutaneous dose of solution formulations in Wistar Han rats
- Assay type: in vivo
- measurement.conditions: male, Wistar Han, rat, plasma, sc, 50 mg/kg, mean ± SD, n = 5 rats; SC 50 mg/kg; solution U, 500 mg/mL; read-out: AUC0-5376 h

{"compound": "CC(C)(C#Cc1ccc(-c2ccc(Cl)c3c(NS(C)(=O)=O)nn(CC(F)(F)F)c23)c([C@H](Cc2cc(F)cc(F)c2)NC(=O)Cn2nc(C(F)(F)F)c3c2C(F)(F)[C@@H]2C[C@H]32)n1)S(C)(=O)=O [compound of Formula (Ia)]", "AUC(0-t) / µM·h": 756}

###

- experiment.summary: PK of compound of Formula (Ia) after single subcutaneous dose of solution formulations in Wistar Han rats
- Type: in vivo
- measurement.conditions: male, Wistar Han, rat, plasma; mean ± SD, n = 3 rats; SC 50 mg/kg; solution R, 400 mg/mL; read-out: AUC0-6720n

{"record.smiles": "CC(C)(C#Cc1ccc(-c2ccc(Cl)c3c(NS(C)(=O)=O)nn(CC(F)(F)F)c23)c([C@H](Cc2cc(F)cc(F)c2)NC(=O)Cn2nc(C(F)(F)F)c3c2C(F)(F)[C@@H]2C[C@H]32)n1)S(C)(=O)=O", "AUC / µM·h": 1010}

###

- experiment.summary: PK of compound of Formula (Ia) after single subcutaneous dose of solution formulations in beagle dogs
- Type: in vivo
- measurement.conditions: male, beagle, dog, plasma, sc, 12 mg/kg, 48.0 h; mean, n = 3 dogs; SC 12 mg/kg; solution T, 400 mg/mL
- Description: Formulations containing the compound of Formula (Ia), or a pharmaceutically acceptable salt thereof, were prepared as solutions and optionally administered subcutaneously or intramuscularly to rats, rabbits, and/or dogs. A solution of about 400 mg/mL of the compound of Formula (Ia) having 17.00 w/w % water, 36.40 w/w % PEG 300, 35.20 w/w % of a sodium salt of a compound of Formula (Ia), 5.00 w/w % ethanol, and 6.40 w/w % poloxamer 188 was prepared. […]

{"record.smiles": "CC(C)(C#Cc1ccc(-c2ccc(Cl)c3c(NS(C)(=O)=O)nn(CC(F)(F)F)c23)c([C@H](Cc2cc(F)cc(F)c2)NC(=O)Cn2nc(C(F)(F)F)c3c2C(F)(F)[C@@H]2C[C@H]32)n1)S(C)(=O)=O", "concentration at 48 h, nM": 241}

###

- experiment.summary: PK of compound of Formula (Ia) after single subcutaneous dose of solution formulations in Wistar Han rats
- Assay type: in vivo
- measurement.conditions: male, Wistar Han, rat, plasma, sc, 50 mg/kg, mean ± SD, n = 3 rats; SC 50 mg/kg; solution S, 500 mg/mL; read-out: AUC0-336 h
measured.parameter: AUC(0-t) (µM·h)

{"molecule": "CC(C)(C#Cc1ccc(-c2ccc(Cl)c3c(NS(C)(=O)=O)nn(CC(F)(F)F)c23)c([C@H](Cc2cc(F)cc(F)c2)NC(=O)Cn2nc(C(F)(F)F)c3c2C(F)(F)[C@@H]2C[C@H]32)n1)S(C)(=O)=O [compound of Formula (Ia)]", "measured.parameter": "AUC(0-t)", "val": 44.2}

###

- experiment.summary: PK of compound of Formula (Ia) after single subcutaneous dose of solution formulations in beagle dogs
- Assay type: in vivo
- measurement.conditions: male, beagle, dog, plasma, sc, 12 mg/kg, beagle dogs, SC 12 mg/kg, 400 mg/mL solution Y (water, PEG 300), 3.00 h, Mean n = 3
measured.parameter: concentration at 3 h (nM)

{"record.smiles": "CC(C)(C#Cc1ccc(-c2ccc(Cl)c3c(NS(C)(=O)=O)nn(CC(F)(F)F)c23)c([C@H](Cc2cc(F)cc(F)c2)NC(=O)Cn2nc(C(F)(F)F)c3c2C(F)(F)[C@@H]2C[C@H]32)n1)S(C)(=O)=O", "val": 17.9}

###

- experiment.summary: PK of compound of Formula (Ia) after single subcutaneous dose of solution formulations in beagle dogs
- Format: in vivo
- measurement.conditions: male, beagle, dog, plasma, sc, 12 mg/kg, beagle dogs, SC 12 mg/kg, 500 mg/mL solution X (5.00% ethanol, 1.91% poloxamer 188), 1.00 h, Mean n = 3

{"record.smiles": "CC(C)(C#Cc1ccc(-c2ccc(Cl)c3c(NS(C)(=O)=O)nn(CC(F)(F)F)c23)c([C@H](Cc2cc(F)cc(F)c2)NC(=O)Cn2nc(C(F)(F)F)c3c2C(F)(F)[C@@H]2C[C@H]32)n1)S(C)(=O)=O", "concentration at 1 h": "12.1 nM"}

###

- experiment.summary: PK of compound of Formula (Ia) after single subcutaneous dose of solution formulations in Wistar Han rats
- Format: in vivo
- measurement.conditions: male, Wistar Han, rat, plasma, sc, 50 mg/kg, 24.0 h; mean, n = 3 rats; SC 50 mg/kg; solution S, 500 mg/mL

{"compound": "CC(C)(C#Cc1ccc(-c2ccc(Cl)c3c(NS(C)(=O)=O)nn(CC(F)(F)F)c23)c([C@H](Cc2cc(F)cc(F)c2)NC(=O)Cn2nc(C(F)(F)F)c3c2C(F)(F)[C@@H]2C[C@H]32)n1)S(C)(=O)=O [compound of Formula (Ia)]", "concentration at 24 h": "127 nM"}

###

- experiment.summary: PK of compound of Formula (Ia) after single subcutaneous dose of solution formulations in Wistar Han rats
- Type: in vivo
- measurement.conditions: male, Wistar Han, rat, plasma, sc, 50 mg/kg, Wistar Han rats, SC 50 mg/kg, 400 mg/mL solution W (5.00% ethanol, 1.57% poloxamer 188), 24.0 h, animals #1-#3
- Experimental: Formulations containing the compound of Formula (Ia), or a pharmaceutically acceptable salt thereof, were prepared as solutions and optionally administered subcutaneously or intramuscularly to rats, rabbits, and/or dogs. A solution of about 400 mg/mL of the compound of Formula (Ia) having 19.14 w/w % water, 40.66 w/w % PEG 300, 35.20 w/w % of a sodium salt of a compound of Formula (Ia), and 5.00% ethanol was prepared. […]

{"record.smiles": "CC(C)(C#Cc1ccc(-c2ccc(Cl)c3c(NS(C)(=O)=O)nn(CC(F)(F)F)c23)c([C@H](Cc2cc(F)cc(F)c2)NC(=O)Cn2nc(C(F)(F)F)c3c2C(F)(F)[C@@H]2C[C@H]32)n1)S(C)(=O)=O", "concentration at 24 h / nM": 127}
